Experiment: protein stability index of a GFP-peptide fusion (yeast GPS) (PSI 1-4); higher = more stable; sorted into four equal gates, so the index is relative within each strain
Conditions: doa10∆
Test Readout: protein stability index
Lab note: jot down the number only; don't add units.

Below are worked cases with known answers.
[
  {
    "Biosequence": "NQIADLSGKFSTIPTRE [ROX3]",
    "protein stability index": 2.98
  },
  {
    "Biosequence": "RFELHGDMTNSDAQSNL [REC8]",
    "protein stability index": 2.93
  }
]

Fill in the blank: the reported protein stability index of WLETYSENRDKFLQEFI [IRR1] is ____.
2.97

Fill in the blank: the reported protein stability index of PAHTVIIKGTDVYSPEK [BRR2] is ____.
3.02

Fill in the blank: the reported protein stability index of TKSNRRVSHSDTNSSKP [SIR4] is ____.
2.97

Fill in the blank: the reported protein stability index of APEQQVQQFAQLPVGFK [UBP6] is ____.
2.92
